TEST DETAILS: Prodrug conversion in Lewis rat blood assessed as parent compound levels at 2 mg/kg, po after 4 hrs
Type: ADME, organism-based
CONDITION DESCRIPTION: in vivo, read-out: Drug metabolism
Here the recorded concentration is given for each entry.
Please report the result as a number followed by the unit.

In plain terms, CCCc1nc2c(s1)-c1ccc([C@H]3CC[C@](N)(CO)C3)cc1CC2 has a documented concentration of 110 nM

In plain terms, CCCCCCOc1nc2ccc3cc([C@H]4CC[C@](N)(CO)C4)ccc3c2s1 has a documented concentration of 81 nM

In plain terms, CCCCc1nc2c(s1)-c1ccc([C@H]3CC[C@](N)(CO)C3)cc1CC2 has a documented concentration of 77 nM

In plain terms, CCCCCc1nc2c(s1)-c1ccc([C@H]3CC[C@](N)(CO)C3)cc1CC2 has a documented concentration of 100 nM

In plain terms, CCCCN(C)c1nc2c(s1)-c1ccc([C@H]3CC[C@](N)(CO)C3)cc1CC2 has a documented concentration of 110 nM

In plain terms, CCCCCCOc1nc2c(s1)-c1ccc([C@H]3CC[C@](N)(CO)C3)cc1CC2 has a documented concentration of 72 nM

In plain terms, CCCCCOc1nc2c(s1)-c1ccc([C@H]3CC[C@](N)(CO)C3)cc1CC2 has a documented concentration of 81 nM

In plain terms, CCCCOc1nc2c(s1)-c1ccc([C@H]3CC[C@](N)(CO)C3)cc1CC2 has a documented concentration of 35 nM

In plain terms, Cc1ccc(-c2nc3c(s2)-c2ccc([C@H]4CC[C@](N)(CO)C4)cc2CC3)cc1 has a documented concentration of 48 nM

In plain terms, CCCCCOc1nc2ccc3cc([C@H]4CC[C@](N)(CO)C4)ccc3c2s1 has a documented concentration of 31 nM

----------
TEST DETAILS: Prodrug conversion in Lewis rat blood assessed as formation phosphate metabolite at 2 mg/kg, po after 24 hrs
Format: ADME, organism-based
CONDITION DESCRIPTION: in vivo
Here the recorded Drug metabolism is given for each entry.

Check out these entries, answers already filled in.
>  <CHEM SMILES>
CCCCOc1nc2ccc3cc([C@H]4CC[C@](N)(CO)C4)ccc3c2s1

>  <OBSERVED>
< 5 nM

$$$$
>  <CHEM SMILES>
CCCCNc1nc2c(s1)-c1ccc([C@H]3CC[C@](N)(CO)C3)cc1CC2

>  <OBSERVED>
190 nM

$$$$
>  <CHEM SMILES>
CCCCOc1nc2c(s1)-c1ccc([C@H]3CC[C@](N)(CO)C3)cc1CC2

>  <OBSERVED>
20 nM

$$$$
>  <CHEM SMILES>
CCCCCCCc1nc2c(s1)-c1ccc([C@H]3CC[C@](N)(CO)C3)cc1CC2

>  <OBSERVED>
300 nM

$$$$

In plain terms, CCCCCCOc1nc2c(s1)-c1ccc([C@H]3CC[C@](N)(CO)C3)cc1CC2 has a documented Drug metabolism of < 5 nM

In plain terms, CCCCCOc1nc2c(s1)-c1ccc([C@H]3CC[C@](N)(CO)C3)cc1CC2 has a documented Drug metabolism of 26 nM

In plain terms, COc1cccc(-c2nc3c(s2)-c2ccc([C@H]4CC[C@](N)(CO)C4)cc2CC3)c1 has a documented Drug metabolism of < 5 nM

In plain terms, CCCc1nc2c(s1)-c1ccc([C@H]3CC[C@](N)(CO)C3)cc1CC2 has a documented Drug metabolism of < 10 nM

In plain terms, CCCCCCc1nc2c(s1)-c1ccc([C@H]3CC[C@](N)(CO)C3)cc1CC2 has a documented Drug metabolism of 160 nM

In plain terms, CCCCOCCOc1nc2c(s1)-c1ccc([C@H]3CC[C@](N)(CO)C3)cc1CC2 has a documented Drug metabolism of 58 nM

----------
System: Rattus norvegicus
TEST DETAILS: Immunosuppressive activity in Lewis rat assessed as reduction in blood lymphocytes count at 2 mg/kg, po after 24 hrs relative to control
Format: functional
Design: scale not given: the % may be the effect or the level left
READOUT KIND: Activity (%)
Dear colleague, please return just the value in %, with no unit written.

Check out these entries, answers already filled in.
>  <CHEM SMILES>
CCCCCCOc1nc2ccc3cc([C@H]4CC[C@](N)(CO)C4)ccc3c2s1

>  <TARGET DESC>
Rattus norvegicus

>  <Activity / %>
83

$$$$
>  <CHEM SMILES>
COc1cccc(-c2nc3c(s2)-c2ccc([C@H]4CC[C@](N)(CO)C4)cc2CC3)c1

>  <TARGET DESC>
Rattus norvegicus

>  <Activity / %>
63

$$$$
>  <CHEM SMILES>
CCCCCCc1nc2c(s1)-c1ccc([C@H]3CC[C@](N)(CO)C3)cc1CC2

>  <TARGET DESC>
Rattus norvegicus

>  <Activity / %>
82

$$$$
>  <CHEM SMILES>
CCCCCc1nc2c(s1)-c1ccc([C@H]3CC[C@](N)(CO)C3)cc1CC2

>  <TARGET DESC>
Rattus norvegicus

>  <Activity / %>
83

$$$$
>  <CHEM SMILES>
CCCCSc1nc2c(s1)-c1ccc([C@H]3CC[C@](N)(CO)C3)cc1CC2

>  <TARGET DESC>
Rattus norvegicus

>  <Activity / %>
48

$$$$

In plain terms, CCCCNc1nc2c(s1)-c1ccc([C@H]3CC[C@](N)(CO)C3)cc1CC2 has a documented Activity of 0

In plain terms, CCCCCOc1nc2c(s1)-c1ccc([C@H]3CC[C@](N)(CO)C3)cc1CC2 has a documented Activity of 80

In plain terms, CCCCOc1nc2ccc3cc([C@H]4CC[C@](N)(CO)C4)ccc3c2s1 has a documented Activity of 77

In plain terms, CCCc1nc2c(s1)-c1ccc([C@H]3CC[C@](N)(CO)C3)cc1CC2 has a documented Activity of 0

----------
TEST DETAILS: Prodrug conversion in Lewis rat blood assessed as parent compound levels at 2 mg/kg, po after 4 hrs
Format: ADME, organism-based
CONDITION DESCRIPTION: in vivo, read-out: Drug metabolism
READOUT KIND: concentration (nM)
Dear colleague, please return just the value in nM, with no unit written.

In plain terms, CCCCCCc1nc2c(s1)-c1ccc([C@H]3CC[C@](N)(CO)C3)cc1CC2 has a documented concentration of 110

In plain terms, CCCCOCCOc1nc2c(s1)-c1ccc([C@H]3CC[C@](N)(CO)C3)cc1CC2 has a documented concentration of 200

In plain terms, CCCCCSc1nc2c(s1)-c1ccc([C@H]3CC[C@](N)(CO)C3)cc1CC2 has a documented concentration of 87

In plain terms, CCCCSc1nc2ccc3cc([C@H]4CC[C@](N)(CO)C4)ccc3c2s1 has a documented concentration of 15

In plain terms, CCCCNc1nc2c(s1)-c1ccc([C@H]3CC[C@](N)(CO)C3)cc1CC2 has a documented concentration of 33

----------
TEST DETAILS: Prodrug conversion in Lewis rat blood assessed as parent compound levels at 2 mg/kg, po after 24 hrs
Type: ADME, organism-based
CONDITION DESCRIPTION: in vivo, read-out: Drug metabolism
READOUT KIND: concentration (nM)
Dear colleague, please return just the value in nM, with no unit written.

>  <CHEM SMILES>
CCCCN(C)c1nc2c(s1)-c1ccc([C@H]3CC[C@](N)(CO)C3)cc1CC2

>  <MEASURE UNIT>
nM

>  <concentration>
18

$$$$

In plain terms, CCCCSc1nc2c(s1)-c1ccc([C@H]3CC[C@](N)(CO)C3)cc1CC2 has a documented concentration of 1.4

In plain terms, CCCCOc1nc2ccc3cc([C@H]4CC[C@](N)(CO)C4)ccc3c2s1 has a documented concentration of 21

In plain terms, CCCCCCOc1nc2c(s1)-c1ccc([C@H]3CC[C@](N)(CO)C3)cc1CC2 has a documented concentration of 31

In plain terms, COc1cccc(-c2nc3c(s2)-c2ccc([C@H]4CC[C@](N)(CO)C4)cc2CC3)c1 has a documented concentration of 68

In plain terms, CCCCCCCc1nc2c(s1)-c1ccc([C@H]3CC[C@](N)(CO)C3)cc1CC2 has a documented concentration of 110

In plain terms, CCCCCCOc1nc2ccc3cc([C@H]4CC[C@](N)(CO)C4)ccc3c2s1 has a documented concentration of 78

In plain terms, CCCCOCCOc1nc2c(s1)-c1ccc([C@H]3CC[C@](N)(CO)C3)cc1CC2 has a documented concentration of 140

----------
TEST DETAILS: Prodrug conversion in Lewis rat blood assessed as parent compound levels at 2 mg/kg, po after 4 hrs
Assay type: ADME, organism-based
CONDITION DESCRIPTION: in vivo, read-out: Drug metabolism
Here the recorded concentration is given for each entry.
Dear colleague, please return just the value in nM, with no unit written.

Check out these entries, answers already filled in.
>  <CHEM SMILES>
CCCCCCCc1nc2c(s1)-c1ccc([C@H]3CC[C@](N)(CO)C3)cc1CC2

>  <concentration, nM>
66

$$$$
>  <CHEM SMILES>
COc1cccc(-c2nc3c(s2)-c2ccc([C@H]4CC[C@](N)(CO)C4)cc2CC3)c1

>  <concentration, nM>
97

$$$$
>  <CHEM SMILES>
CCCCOc1nc2ccc3cc([C@H]4CC[C@](N)(CO)C4)ccc3c2s1

>  <concentration, nM>
28

$$$$

From here, focus on the item given below.
In plain terms, CCCCSc1nc2c(s1)-c1ccc([C@H]3CC[C@](N)(CO)C3)cc1CC2 has a documented concentration of 9.1
